settings: in n-propyl acetate, 308.15 K
test readout: solubility (mole fraction)

Which measured solubility (mole fraction) value corresponds to CC1(C)[C@@H](O)CC[C@]2(C)[C@H]3C(=O)C=C4[C@@H]5C[C@@](C)(C(=O)O)CC[C@]5(C)CC[C@@]4(C)[C@]3(C)CC[C@@H]12 ?
0.00261

* * *

settings: in ethanol, 308.15 K
test readout: solubility (mole fraction)
One number for each entry.

What does the data say about its solubility (mole fraction)? Entry: CC1(C)[C@@H](O)CC[C@]2(C)[C@H]3C(=O)C=C4[C@@H]5C[C@@](C)(C(=O)O)CC[C@]5(C)CC[C@@]4(C)[C@]3(C)CC[C@@H]12
0.0148

* * *

settings: in 1,4-dioxane, 323.15 K
test readout: solubility (mole fraction)
One number for each entry.

Any idea what its solubility (mole fraction) is? The molecule is CC1(C)[C@@H](O)CC[C@]2(C)[C@H]3C(=O)C=C4[C@@H]5C[C@@](C)(C(=O)O)CC[C@]5(C)CC[C@@]4(C)[C@]3(C)CC[C@@H]12
0.036

* * *

settings: in THF, 318.15 K
test readout: solubility (mole fraction)
Numbers only.

solubility (mole fraction) for CC1(C)[C@@H](O)CC[C@]2(C)[C@H]3C(=O)C=C4[C@@H]5C[C@@](C)(C(=O)O)CC[C@]5(C)CC[C@@]4(C)[C@]3(C)CC[C@@H]12 ?
0.0827

* * *

settings: in acetone, 318.15 K
test readout: solubility (mole fraction)
Numbers only.

I have this molecule here, CC1(C)[C@@H](O)CC[C@]2(C)[C@H]3C(=O)C=C4[C@@H]5C[C@@](C)(C(=O)O)CC[C@]5(C)CC[C@@]4(C)[C@]3(C)CC[C@@H]12 , and I need its recorded solubility (mole fraction).
0.00543

* * *

settings: in n-butyl acetate, 313.15 K
test readout: solubility (mole fraction)

So what does the record say about solubility (mole fraction) for CC1(C)[C@@H](O)CC[C@]2(C)[C@H]3C(=O)C=C4[C@@H]5C[C@@](C)(C(=O)O)CC[C@]5(C)CC[C@@]4(C)[C@]3(C)CC[C@@H]12 ?
0.00354

* * *

settings: in acetone, 293.15 K
test readout: solubility (mole fraction)
Give bare numbers.

Look at this compound and give its reported solubility (mole fraction). CC1(C)[C@@H](O)CC[C@]2(C)[C@H]3C(=O)C=C4[C@@H]5C[C@@](C)(C(=O)O)CC[C@]5(C)CC[C@@]4(C)[C@]3(C)CC[C@@H]12
0.0038

* * *

settings: in ethanol, 303.15 K
test readout: solubility (mole fraction)

I am curious: what solubility (mole fraction) value has been reported for CC1(C)[C@@H](O)CC[C@]2(C)[C@H]3C(=O)C=C4[C@@H]5C[C@@](C)(C(=O)O)CC[C@]5(C)CC[C@@]4(C)[C@]3(C)CC[C@@H]12 ?
0.0143

* * *

settings: in acetone, 313.15 K
test readout: solubility (mole fraction)
Answers are plain numbers.

I have this compound here, CC1(C)[C@@H](O)CC[C@]2(C)[C@H]3C(=O)C=C4[C@@H]5C[C@@](C)(C(=O)O)CC[C@]5(C)CC[C@@]4(C)[C@]3(C)CC[C@@H]12 , and I need its recorded solubility (mole fraction).
0.00495

* * *

settings: in n-propyl acetate, 323.15 K
test readout: solubility (mole fraction)
Give bare numbers.

// lookup solubility (mole fraction) for CC1(C)[C@@H](O)CC[C@]2(C)[C@H]3C(=O)C=C4[C@@H]5C[C@@](C)(C(=O)O)CC[C@]5(C)CC[C@@]4(C)[C@]3(C)CC[C@@H]12
0.00295
